- System: SW-620
- Test method notes: NCI tumour cell line growth inhibition, 48 h
Calls of active or inactive are those of the source. Cut-off read from the data, not from the text of the source: active = GI50 up to about 1.1 µM and inactive = higher.
Respond using exactly one of the listed classes: active, inactive

Here are 6 compounds together with their reported answers.
COc1ccc2c(c1)/C(=C\c1c(C)nc3n1CCS3)C(=O)N2 : inactive
CC1=C[C@@H](C)C[C@]2(C)CC[C@H](O2)[C@]23CC[C@](C(=O)O)(C[C@H](O2)[C@@H]2O[C@@](C)(CC2=O)[C@@H](O)[C@H]2CC[C@@]4(CCC[C@@H](O4)[C@H](C)C(=O)O[C@H]4C[C@H]([C@]5(O)OCC[C@H](C)[C@@H]5O)O[C@H]4C=C1)O2)O3 : inactive
CCOC(=O)Cc1csc(N/N=C2\C(=O)Nc3ccccc32)n1 : inactive
O=C(CC(=O)n1nc(-c2ccccc2)c(/N=N/c2ccc(Cl)cc2)c1-c1ccccc1)Nc1cccc(Cl)c1 : inactive
CC1=C2C(=O)c3ccccc3C(=O)[C@H]2C[C@@H](N2CCCC2=O)O1 : inactive
Cc1ccc2c(O)cc(-c3cccc4ccccc34)nc2n1 : active

Q) Which result was noted for this compound in the test: CCCCCCCCCCCCCC(=O)OCC(CCS(=O)(=O)O[C@H]1CC[C@@]2(C)C(=CC[C@@H]3C2CC[C@]2(C)C(=O)CCC32)C1)OC(=O)CCCCCCCCCCCCC (some centres not stated)
A) inactive

* * *

- Test system: SNB-75
- Test method notes: NCI tumour cell line growth inhibition, 48 h
Active and inactive are the calls of the source. No stated cut-off is given here; in the data, active = GI50 up to about 1.1 µM and inactive = higher.
Quantity name: GI50

CC(=O)OCC1OC(Oc2cc(C)c(O)cc2C/C=C(\C)CC/C=C(\C)CC(=O)CC(C)C)C(O)C(OC(C)=O)C1OC(C)=O (stereo unspecified) : > 50 µM (inactive)
c1ccc(OCc2nnc(CCCCCCCCc3nnc(COc4ccccc4)o3)o2)cc1 : 28.1 µM (inactive)
COc1cccc(/N=C/c2cc3cc(Br)ccc3nc2Cl)c1 : 17.1 µM (inactive)
Cc1cc(=O)nc(S(=O)(=O)NC(=S)Nc2ccc(Cl)cc2)[nH]1 : 64 µM (inactive)
Cc1nc2ccccc2c(=O)n1NC(=O)c1ccc(CS)cc1 : 14.9 µM (inactive)
CCCCN(CC)C(=O)C1=C(C)NC(C)=C(C(=O)N(CC)CCCC)C1 : 77.1 µM (inactive)

Q) Which GI50 is reported for this molecule? `O=CN/C=C/c1cc(O)ccc1O`
A) 62.4 µM (inactive)

Q) And for `CC=C/C=C/[C@@H]1O[C@](O)([C@H](CC)C(=O)NC/C=C/C=C(\C)[C@@H](OC)[C@@H](C)[C@@H]2O[C@H](/C=C/C=C/C=C(\C)C(=O)c3c(O)cc[nH]c3=O)[C@H](O)[C@@H]2O)[C@H](O)[C@H](O)C1(C)C` ?
A) > 100 µM (inactive)

* * *

- System: DLD-1
- Test method notes: NCI tumour cell line growth inhibition, 48 h
Calls of active or inactive are those of the source. Cut-off read from the data, not from the text of the source: active = GI50 up to about 1.1 µM and inactive = higher.
Quantity name: GI50

O=C1c2ccccc2N2Oc3ccccc3C12c1ccccc1 (stereo not given) : > 10 µM (inactive)
O=c1oc2c3ccc4ccccc4c3n(CCN3CCOCC3)c2c2ccccc12 : > 100 µM (inactive)
O=C(OCc1ccccc1)OOC(=O)OCc1ccccc1 : > 100 µM (inactive)
COC1OC(COCc2ccc(Cl)cc2)C(OCc2ccc(Cl)cc2)C1O (stereo not given) : 16.2 µM (inactive)

Moving on to another compound below.
Q) Find the recorded GI50 belonging to `CCOC(=O)C(C)(NC(=O)c1ccc(NCc2ccc3nc(NC(=O)c4ccccc4)nc(NC(=O)c4ccccc4)c3c2)cc1)C(=O)OCC` and report it.
A) 15.6 µM (inactive)

* * *

- Tested on: SK-MEL-2
- Test method notes: NCI tumour cell line growth inhibition, 48 h
Activity calls are given as the source filed them. Rule as the data show it: active = GI50 up to about 1.1 µM and inactive = higher. Where a SMILES comes first, the peptide text is derived from it. [ ]: non-standard residue; d: D form. Phe(F5) = N[CH](Cc1c(F)c(F)c(F)c(F)c1F)C(=O)O
// classify into class 1 for active, class 0 for inactive

Worked examples, 10 molecules total:
COC(=O)C(CC(C)C)NC(=O)C(Cc1c[nH]cn1)NC(=O)CNC(=O)C(NC(=O)C(C)NC(=O)C(Cc1c[nH]c2ccccc12)NC(=O)C(CCC(=O)O)NC(=O)C(N)Cc1c(F)c(F)c(F)c(F)c1F)C(C)C (configuration not stated) (H-[Phe(F5)]EWAVGHL-OMe; configuration not given here) : class 0
COc1ccc(/C=C2\C[C@H]3[C@@H]4CCC5=C/C(=N/O)CC[C@]5(C)[C@H]4CC[C@]3(C)\C2=N\O)cc1OC : class 0
O=C1COC(c2ccccc2O)=NN1CCCN1CCCC1 : class 0
COc1cc([C@@H]2c3cc4c(cc3[C@H](OC3OC5COC(C(C)C)OC5C(O)C3O)C3COC(=O)[C@@H]32)OCO4)cc(OC)c1O (some centres not stated) : class 0
CCN(CC)CCCNc1nc(=O)[nH]c(C)c1C(=O)Nc1ccc2c(c1)c1ccccc1n2CC : class 0
COc1cccc(N2C(=O)CSC2c2cccc(Oc3ccccc3)c2)c1 (configuration not stated) : class 0
O=C(Cc1nc2sc3c(c2c(=O)[nH]1)CCCC3)Nc1ccccc1 : class 0
[N-]=[N+]=NC1=NNC2(C(=O)N1)c1ccccc1-c1ccccc12 : class 0
Cc1cc(=O)nc(S(=O)(=O)NC(=S)Nc2ccc(Cl)cc2)[nH]1 : class 0
COc1ccc(/N=c2\ssc3c(=S)ssc23)cc1 : class 0

Q) Short answer needed: outcome of this test for `O=C(CC/C=C(/CS(=O)(=O)c1ccccc1)S(=O)(=O)c1ccccc1)c1ccccc1` ?
A) class 0

Q) What would you report for `COc1cc(C(N)=O)cc(NC(=O)/C=C/c2ccccc2)c1OC` ?
A) class 0

Q) Lookup `Sc1cnnc2ccc(Br)cc12`
A) class 0

Q) Now this one: C=C1C2CCC3(CCC4C5(C)CCCC4(C=[N+](CCO)C5)C3C2)C1O (configuration not stated)
A) class 0

Q) Next up: CC(C)C1=C(O)C(=O)C2=C(C1=O)C(O)CC1C(C)(C)CCCC21C (configuration not stated)
A) class 0

Q) # repeat for `O=C(NCCOC(=O)OCCNC(=O)NC1CCCCC1)NC1CCCCC1`
A) class 0

* * *

- System: HOP-62
- Test method notes: NCI tumour cell line growth inhibition, 48 h
Activity calls are given as the source filed them. Cut-off read from the data, not from the text of the source: active = GI50 up to about 1.1 µM and inactive = higher.
Items are presented alongside their recorded GI50.

The examples below pair each entry with its known result.
Cn1c2ccccc2n2c3ccccc3c3nnc(N)c-3c12 : 9.2 µM (inactive)
C=C1C2CCC3(CCC4C5(C)CCCC4(C=[N+](CCO)C5)C3C2)C1O (centres undefined) : > 100 µM (inactive)
Cc1cccc(C)c1NC(=O)Nc1ccc(S(N)(=O)=O)cc1 : > 100 µM (inactive)
NCCCCC(=O)c1cccnc1 : > 100 µM (inactive)
COc1cc(OC)c(-c2ccc(OCc3ccccc3)c3c(OC)cc(C)cc23)c2c1C(C)=N[C@H](C)C2 : 2.26 µM (inactive)
CCCCCCCCCCCCOP(=O)(O)OP(=O)(O)OCC1OC(n2cc(C)c(=O)[nH]c2=O)CC1O (centres undefined) : > 100 µM (inactive)
CC1O[C@@H]2CCCCC(=O)[C@]2(C)[C@H]1C (some centres undefined) : > 100 µM (inactive)
Cc1ccc(S(=O)(=O)N(CCN2C(=O)c3ccccc3C2=O)c2cc3c4c(c2)Oc2cc(N(CCN5C(=O)c6ccccc6C5=O)S(=O)(=O)c5ccc(C)cc5)cc5c2C4(C)c2c(cc(N(CCN4C(=O)c6ccccc6C4=O)S(=O)(=O)c4ccc(C)cc4)cc2O5)O3)cc1 : > 100 µM (inactive)

Now consider the entry below.
Q) Entry `COC(=O)NC(Nc1ccc(C)cc1)(C(F)(F)F)C(F)(F)F` has what GI50?
A) > 100 µM (inactive)

* * *

- Test system: MDA-MB-435
- Test method notes: NCI tumour cell line growth inhibition, 48 h
Active and inactive are the calls of the source. Cut-off read from the data, not from the text of the source: active = GI50 up to about 1.1 µM and inactive = higher.
Listing of entries alongside the reported GI50.

O=C(NCC(C(=O)OCc1ccccc1)C(=O)OCc1ccccc1)OCc1ccccc1 : > 100 µM (inactive)

Q) Fill in the blank: the reported GI50 of CC[N+]1(C)CCC(O)(/C=C/c2ccc(Cl)c(Cl)c2)C(C(=O)/C=C/c2ccc(Cl)c(Cl)c2)C1 (centres undefined) is ____.
A) 2.12 µM (inactive)

Q) Consider next the molecule `CN(C)c1n/c(=N/Cc2cccnc2)ss1` in the same way.
A) > 10 µM (inactive)

Q) How about `CN(CCn1cnc2c1c(=O)n(C)c(=O)n2C)C1CCCCC1` ?
A) > 100 µM (inactive)

Q) What would you report for `O=C(CNc1ccc2c(=S)c3ccccc3[nH]c2c1)Nc1ccccc1-c1ccccc1NC(=O)CNc1ccc2c(=S)c3ccccc3[nH]c2c1` ?
A) 24 µM (inactive)
